Biological target: T1, human GIP receptor (human) (UniProt P48546)
T1 sequence (looked up): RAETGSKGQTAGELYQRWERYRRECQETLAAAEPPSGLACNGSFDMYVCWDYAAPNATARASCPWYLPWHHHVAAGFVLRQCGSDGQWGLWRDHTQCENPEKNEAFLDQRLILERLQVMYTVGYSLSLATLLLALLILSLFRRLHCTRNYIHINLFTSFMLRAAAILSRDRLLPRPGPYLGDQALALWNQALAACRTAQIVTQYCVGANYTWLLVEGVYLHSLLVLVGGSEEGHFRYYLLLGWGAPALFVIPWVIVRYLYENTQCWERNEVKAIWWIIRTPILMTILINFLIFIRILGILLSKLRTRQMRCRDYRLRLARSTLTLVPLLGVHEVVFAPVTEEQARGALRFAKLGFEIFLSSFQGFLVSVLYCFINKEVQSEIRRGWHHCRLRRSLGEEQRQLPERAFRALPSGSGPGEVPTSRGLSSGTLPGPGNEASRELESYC
Assay: cell-based or functional assay
Provide the reported Relative cAMP EC50 of each item.
Give the number; nM is assumed, so skip it.

Write down Relative cAMP EC50 measured for item YXQGTFTSDXSXXLDKKAQXAFIEXLIAGGPSSGEPPPSGS (Aib, 4Pal, Orn, αMeL, Me4Pal, αMeY; γGlu2-C18 diacid Lys; amide; synthetic construct; SITE 2: note = 2-Aminoisobutyric Acid; SITE 10: note = 3-(4-Pyridyl)-L-alanine; SITE 12: note = L-ornithine; SITE 13: note = alpha-methyl-leucine; SITE 17: note = Lysine is chemically modified through conjugation of the epsilon-amino group of the Lysine side chain with (gamma-Gl)) [Example 1014]
0.0412

Write down Relative cAMP EC50 measured for item YXQGTXTSDXXIXLDXKAQXQFIEXLQEGGPSSGEPPPEGTGE (synthetic construct; SITE 2: note = 2-Aminoisobutyric Acid; SITE 6: note = alpha-methyl-2-fluoro-L-phenylalanine; SITE 10: note = 3-(4-Pyridyl)-L-alanine; SITE 11: note = alpha-methyl-L-serine; SITE 13: note = alpha-methyl-leucine; SITE 16: note = L-ornithine; SITE 17: note = Lysine is chemically mo) [Example 529]
0.0273

Write down Relative cAMP EC50 measured for item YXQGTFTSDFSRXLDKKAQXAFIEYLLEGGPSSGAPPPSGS (synthetic construct; SITE 2: note = 2-Aminoisobutyric Acid; SITE 13: note = alpha-methyl-leucine; SITE 17: note = Lysine is chemically modified through conjugation of the epsilon-amino group of the Lysine side chain with (2-[2-(2-Amino-ethoxy)-ethoxy]-acetyl)-(gamma-Glu)-CO-(CH2) 16-CO2H; SITE 20: n) [Example 143]
0.211

Write down Relative cAMP EC50 measured for item YXQGTFTSDXSQXLDKKAQXAFIEYLIEXGESSGAPPPSGS (non-natural residues, lipidated Lys, C-terminal amide; synthetic construct; SITE 2: note = 2-Aminoisobutyric Acid; SITE 10: note = 3-(4-Pyridyl)-L-alanine; SITE 13: note = alpha-methyl-leucine; SITE 17: note = Lysine is chemically modified through conjugation of the epsilon-amino group of the Lysine side chain with (2-[2-(2-Amino-ethoxy)-ethoxy]-acetyl)) [Example 226]
0.127

Write down Relative cAMP EC50 measured for item YXQGTFTSDXSQXLDXKAQXAFIEYLIAGGPSSGEPPPSGTEEE (synthetic construct; SITE 2: note = 2-Aminoisobutyric Acid; SITE 10: note = 3-(4-Pyridyl)-L-alanine; SITE 13: note = alpha-methyl-leucine; SITE 16: note = L-ornithine; SITE 17: note = Lysine is chemically modified through conjugation of the epsilon-amino group of the Lysine side chain with (gamma-Gl)) [Example 986]
0.299

Write down Relative cAMP EC50 measured for item YXQGTFTSDFSXXLDKKAQXAFIEYLIEXGESSGAPPPSGE (non-natural residues, acylated Lys, C-terminal amide; synthetic construct; SITE 2: note = 2-Aminoisobutyric Acid; SITE 12: note = L-ornithine; SITE 13: note = alpha-methyl-leucine; SITE 17: note = Lysine is chemically modified through conjugation of the epsilon-amino group of the Lysine side chain with (2-[2-(2-Amino-ethoxy)-ethoxy]-acetyl)-(gamma-Glu)) [Example 228]
0.147
